// values below are reported pIC50
molecular target: T1, HLA-DRw53 (DRB4*0101), purified from L257.6 transfected fibroblasts (human); test: 125I-peptide inhibition, purified class II
T1 chain 1: not shown
T1 chain 2: not shown
Non-standard residues stand in square brackets, D forms with d. No end group written: not given here. Cha = N[C@@H](CC1CCCCC1)C(=O)O
// pIC50 here means minus log10 of the molar concentration (mol/L)

Binder: [dA]A[Cha]AAAATLKAA[dA] [760.57]
pIC50: 5.48

Binder: [dA]A[Cha]VAAATLKAA[dA] [906.09]
pIC50: 7.03

--- query ---
Request the reported pIC50 associated with [dA]A[Cha]IAAATLKAA[dA] [906.11] 7.39
